molecular target: RORγt (Homo sapiens); construct: host or cells: IL-17A Prom/LUCPorter HEK 293 cell line (IMGENEX, IML-301); experiment: RORγt-activated IL-17A Prom/LUCPorter HEK 293 cells luciferase reporter assay; type: cell-based; conditions: IL-17A Prom/LUCPorter HEK 293 cells transfected with RORγt, 16 h; read-out: RORγt Cell Specific
Sequence (P51449 1-497 isoform P51449-2): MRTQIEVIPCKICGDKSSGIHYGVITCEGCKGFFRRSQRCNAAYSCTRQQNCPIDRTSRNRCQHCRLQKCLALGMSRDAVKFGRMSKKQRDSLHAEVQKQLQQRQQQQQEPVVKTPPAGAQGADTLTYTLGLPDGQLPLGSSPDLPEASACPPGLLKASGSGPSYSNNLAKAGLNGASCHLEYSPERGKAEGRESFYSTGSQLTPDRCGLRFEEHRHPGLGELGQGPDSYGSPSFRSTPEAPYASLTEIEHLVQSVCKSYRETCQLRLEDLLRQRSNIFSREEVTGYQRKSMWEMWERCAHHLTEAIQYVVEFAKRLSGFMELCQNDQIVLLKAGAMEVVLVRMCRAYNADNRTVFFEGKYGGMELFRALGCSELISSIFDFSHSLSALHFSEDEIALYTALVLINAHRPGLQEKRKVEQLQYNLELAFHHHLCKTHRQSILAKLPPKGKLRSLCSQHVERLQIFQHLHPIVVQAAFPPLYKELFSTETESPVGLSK
pIC50: −log10 of the molar value.
value-kind: pIC50

Asked: Need pIC50 of COc1cc2c(cc1N1CCNCC1)CC(Cc1ncccc1C(F)(F)F)C2=O (stereo not drawn) [compound 249] , thanks.
Given back: > 6.30

Asked: What would you report for COc1cc2c(cc1N1CCN(C)CC1)CC(Cc1cncc(C(O)(C(F)(F)F)C(F)(F)F)c1)C2=O (stereo not drawn) ?
Given back: > 6.30

Asked: Same read-out for COc1cc2c(cc1N1CCOCC1)CC(Cc1cc(C)n[nH]1)C2=O (stereo not drawn) ?
Given back: < 6.00

Where do these numbers come from? They come from patent US9446047B2.
